Catalogue of self-cleavage values
B1: CPEB3 Ribozyme (parent)
chain: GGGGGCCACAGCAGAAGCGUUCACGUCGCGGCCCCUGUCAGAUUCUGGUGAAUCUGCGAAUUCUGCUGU

Variants of: B1
Experiment: self-cleavage, relative activity (ratio to wild type); higher = more cleavage; co-transcriptional
# print the numeric value only

// solved cases for self-cleavage follow
- sequence.variant: "G2C A51G"
  readout.name: "self-cleavage"
  reported: 0.0786
- sequence.variant: "G14C G37C"
  readout.name: "self-cleavage"
  reported: 0.127
- sequence.variant: "G2U A51U"
  readout.name: "self-cleavage"
  reported: 0.0841

IN: Dear colleague, I am looking for the recorded self-cleavage of the following variant: A15C A16C
OUT: 0.111

IN: Dear colleague, I am looking for the recorded self-cleavage of the following variant: C29U G58U
OUT: 0.641

IN: Dear colleague, I am looking for the recorded self-cleavage of the following variant: C18G G56U
OUT: 0.128

IN: Dear colleague, I am looking for the recorded self-cleavage of the following variant: U44A C54A
OUT: 0.588

IN: Dear colleague, I am looking for the recorded self-cleavage of the following variant: G2U A13U
OUT: 0.052

IN: Dear colleague, I am looking for the recorded self-cleavage of the following variant: A23G C33G
OUT: 0.262

IN: Dear colleague, I am looking for the recorded self-cleavage of the following variant: U20A C29U
OUT: 0.155

IN: Dear colleague, I am looking for the recorded self-cleavage of the following variant: A16G A52U
OUT: 0.804

IN: Dear colleague, I am looking for the recorded self-cleavage of the following variant: C45U C66G
OUT: 0.87

IN: Dear colleague, I am looking for the recorded self-cleavage of the following variant: A8G G14A
OUT: 0.13

IN: Dear colleague, I am looking for the recorded self-cleavage of the following variant: G17U C39G
OUT: 0.289

IN: Dear colleague, I am looking for the recorded self-cleavage of the following variant: G4U U67A
OUT: 0.9

IN: Dear colleague, I am looking for the recorded self-cleavage of the following variant: C24U C34A
OUT: 0.263

IN: Dear colleague, I am looking for the recorded self-cleavage of the following variant: A42U U62C
OUT: 0.721

IN: Dear colleague, I am looking for the recorded self-cleavage of the following variant: G37C A59G
OUT: 0.234
